These data points were gathered from patent US20230141887A1.

Test Method Notes: In vivo pharmacokinetic assay in mice
Parameters: species or system CD-1 male mice
Condition Description: male, CD-1, mouse, plasma, iv, Injection (1 mg/kg)
Readout Type: half-life (h)
Supply the numeric figure in h, leaving out any unit text.

## Task Which value of half-life has been reported for CCc1nc(C(N)=O)c(Nc2ccc(N3CCC(N4CCN(C)CC4)CC3)c(OC)c2)nc1NC1CCOCC1 [Compound B, reference compound] in the records?
## Result 2.09

## Task Moving on to the next molecule: CCc1nc(C(N)=O)c(Nc2ccc(N3CCC4(CCN(C)CC4)CC3)c(OC)c2)nc1NC1CCOCC1
## Result 2.13

* * *

Test Method Notes: In vivo pharmacokinetic assay in mice
Parameters: species or system CD-1 male mice
Condition Description: male, CD-1, mouse, plasma, iv, Injection (1 mg/kg), read-out: Vdss
Procedure: CD-1 male mice aged 7 to 10 weeks were selected. The doses for intravenous and oral administration were 1 mg/kg and 2.5 mg/kg, respectively. The mice were fasted for at least 12 hours before the administration, and resumed feeding 4 hours after the administration. The mice had free access to water throughout the assay period. […]
Readout Type: Vd (L/kg)
Note: unit L/kg is implicit; provide only the numeric part.

## Task Entry CCc1nc(C(N)=O)c(Nc2ccc(N3CCC4(CCN(C)CC4)CC3)c(OC)c2)nc1NC1CCOCC1 : reported Vd = ?
## Result 8.93

## Task Try CCc1nc(C(N)=O)c(Nc2ccc(N3CCC(N4CCN(C)CC4)CC3)c(OC)c2)nc1NC1CCOCC1 [Compound B, reference compound] next.
## Result 7.47

* * *

Target Or Test System: FLT3(ITD) (Homo sapiens, UniProt P36888)
Construct: fused on or other part: DNA tag for the qPCR read-out (the KINOMEscan format)
Readout Type: Kd (nM)
Only the number, expressed in nM, is required.

## Task Requested read-out: Kd. Entry: CCc1nc(C(N)=O)c(Nc2ccc(N3CCC4(CCN(C)CC4)CC3)c(C)c2)nc1NC1CCOCC1.O=C(O)C(F)(F)F
## Result 3.6

* * *

Target Or Test System: FLT3(N841I) (Homo sapiens, UniProt P36888, N841I)
Method: The assay was carried out using KINOMEscan™ technology. The assay compounds were stored in 100% DMSO. The assay was carried out by means of 3-fold dilution and 11-point fitting. All compounds used for Kd determination were dispersed by ultrasound, then directly diluted and tested. All reactions were carried out in a 384-well polypropylene plate. Each portion has a final volume of 0.02 ml. […] The kinase concentration in the eluent was finally determined by qPCR method. […]
Readout Type: Kd (nM)
Give the number; nM is assumed, so skip it.

## Task // Kd lookup, key: CCc1nc(C(N)=O)c(Nc2ccc(N3CCC4(CCN(C)CC4)CC3)c(C)c2)nc1NC1CCOCC1.O=C(O)C(F)(F)F
## Result 5.4

* * *

Target Or Test System: FLT3(ITD, F691L) (Homo sapiens, UniProt P36888, F691L, form not given)
Construct: fused on or other part: DNA tag for the qPCR read-out (the KINOMEscan format)
Condition Description: FLT3(ITD, F691L)
Readout Type: Kd (nM)
Your answer is read as nM, so omit the unit and give the number.

## Task So what does the record say about Kd for CCc1nc(C(N)=O)c(Nc2ccc(N3CCC4(CCN(C)CC4)CC3)c(C)c2)nc1NC1CCOCC1.O=C(O)C(F)(F)F ?
## Result 0.21

* * *

Test Method Notes: In vivo pharmacokinetic assay in mice
Set-up: species or system CD-1 male mice
Condition Description: male, CD-1, mouse, plasma, Oral administration (2.5 mg/kg)
Readout Type: half-life (h)
Express it in h; write the number only.

## Task I am curious: what half-life value has been reported for CCc1nc(C(N)=O)c(Nc2ccc(N3CCC(N4CCN(C)CC4)CC3)c(OC)c2)nc1NC1CCOCC1 [Compound B, reference compound] ?
## Result 5.59

## Task And the next one, CCc1nc(C(N)=O)c(Nc2ccc(N3CCC4(CCN(C)CC4)CC3)c(OC)c2)nc1NC1CCOCC1 [Compound A] ?
## Result 7.57

* * *

Target Or Test System: FLT3(D835V) (Homo sapiens, UniProt P36888, D835V)
Sequence (P36888 27-993 D835V): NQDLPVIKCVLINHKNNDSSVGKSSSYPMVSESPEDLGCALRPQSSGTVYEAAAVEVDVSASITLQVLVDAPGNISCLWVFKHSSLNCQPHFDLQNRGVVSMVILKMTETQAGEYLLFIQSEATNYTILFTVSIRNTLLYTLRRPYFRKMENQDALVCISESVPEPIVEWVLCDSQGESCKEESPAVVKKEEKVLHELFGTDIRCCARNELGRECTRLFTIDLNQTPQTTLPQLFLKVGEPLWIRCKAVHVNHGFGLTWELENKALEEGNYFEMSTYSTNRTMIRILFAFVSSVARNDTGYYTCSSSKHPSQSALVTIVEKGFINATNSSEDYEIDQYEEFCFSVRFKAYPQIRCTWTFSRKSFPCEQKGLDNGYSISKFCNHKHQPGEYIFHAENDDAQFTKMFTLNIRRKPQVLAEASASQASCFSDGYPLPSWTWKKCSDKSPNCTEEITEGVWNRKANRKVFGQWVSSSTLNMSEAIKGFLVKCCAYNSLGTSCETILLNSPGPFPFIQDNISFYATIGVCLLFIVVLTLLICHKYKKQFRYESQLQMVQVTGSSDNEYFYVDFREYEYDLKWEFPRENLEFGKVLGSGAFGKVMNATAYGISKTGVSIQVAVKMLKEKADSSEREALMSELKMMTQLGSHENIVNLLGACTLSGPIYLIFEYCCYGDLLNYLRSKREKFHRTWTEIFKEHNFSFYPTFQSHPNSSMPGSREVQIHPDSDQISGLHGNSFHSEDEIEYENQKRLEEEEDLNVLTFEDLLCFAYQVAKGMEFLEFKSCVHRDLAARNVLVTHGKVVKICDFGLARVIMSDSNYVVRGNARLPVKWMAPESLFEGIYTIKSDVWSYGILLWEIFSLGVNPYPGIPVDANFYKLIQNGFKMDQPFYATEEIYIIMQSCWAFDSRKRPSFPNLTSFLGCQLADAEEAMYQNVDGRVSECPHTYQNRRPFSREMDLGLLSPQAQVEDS
Readout Type: Kd (nM)
Use nM as the unit, but write only the number.

## Task I would be grateful if you could share the reported Kd for CCc1nc(C(N)=O)c(Nc2ccc(N3CCC4(CCN(C)CC4)CC3)c(C)c2)nc1NC1CCOCC1.O=C(O)C(F)(F)F .
## Result 0.23

* * *

Target Or Test System: FLT3(R834Q) (Homo sapiens, UniProt P36888, R834Q)
Assay type: binding
Readout Type: Kd

## Task Form entry - test system: FLT3(R834Q) (Homo sapiens, UniProt P36888, R834Q); read-out: Kd; molecule: CCc1nc(C(N)=O)c(Nc2ccc(N3CCC4(CCN(C)CC4)CC3)c(C)c2)nc1NC1CCOCC1.O=C(O)C(F)(F)F
## Result 31 nM

* * *

Target Or Test System: FLT3(D835Y) (Homo sapiens, UniProt P36888, D835Y)
Description: The assay was carried out using KINOMEscan™ technology. The assay compounds were stored in 100% DMSO. The assay was carried out by means of 3-fold dilution and 11-point fitting. All compounds used for Kd determination were dispersed by ultrasound, then directly diluted and tested. All reactions were carried out in a 384-well polypropylene plate. Each portion has a final volume of 0.02 ml. […] The kinase concentration in the eluent was finally determined by qPCR method. […]
Readout Type: pKd
Note on pKd: it is the negative log10 of concentration, concentration in mol/L.

## Task Which pKd is reported for this compound? CCc1nc(C(N)=O)c(Nc2ccc(N3CCC4(CCN(C)CC4)CC3)c(C)c2)nc1NC1CCOCC1.O=C(O)C(F)(F)F
## Result 8.85

* * *

Target Or Test System: FLT3(K663Q) (Homo sapiens, UniProt P36888, K663Q)
Sequence (P36888 27-993 K663Q): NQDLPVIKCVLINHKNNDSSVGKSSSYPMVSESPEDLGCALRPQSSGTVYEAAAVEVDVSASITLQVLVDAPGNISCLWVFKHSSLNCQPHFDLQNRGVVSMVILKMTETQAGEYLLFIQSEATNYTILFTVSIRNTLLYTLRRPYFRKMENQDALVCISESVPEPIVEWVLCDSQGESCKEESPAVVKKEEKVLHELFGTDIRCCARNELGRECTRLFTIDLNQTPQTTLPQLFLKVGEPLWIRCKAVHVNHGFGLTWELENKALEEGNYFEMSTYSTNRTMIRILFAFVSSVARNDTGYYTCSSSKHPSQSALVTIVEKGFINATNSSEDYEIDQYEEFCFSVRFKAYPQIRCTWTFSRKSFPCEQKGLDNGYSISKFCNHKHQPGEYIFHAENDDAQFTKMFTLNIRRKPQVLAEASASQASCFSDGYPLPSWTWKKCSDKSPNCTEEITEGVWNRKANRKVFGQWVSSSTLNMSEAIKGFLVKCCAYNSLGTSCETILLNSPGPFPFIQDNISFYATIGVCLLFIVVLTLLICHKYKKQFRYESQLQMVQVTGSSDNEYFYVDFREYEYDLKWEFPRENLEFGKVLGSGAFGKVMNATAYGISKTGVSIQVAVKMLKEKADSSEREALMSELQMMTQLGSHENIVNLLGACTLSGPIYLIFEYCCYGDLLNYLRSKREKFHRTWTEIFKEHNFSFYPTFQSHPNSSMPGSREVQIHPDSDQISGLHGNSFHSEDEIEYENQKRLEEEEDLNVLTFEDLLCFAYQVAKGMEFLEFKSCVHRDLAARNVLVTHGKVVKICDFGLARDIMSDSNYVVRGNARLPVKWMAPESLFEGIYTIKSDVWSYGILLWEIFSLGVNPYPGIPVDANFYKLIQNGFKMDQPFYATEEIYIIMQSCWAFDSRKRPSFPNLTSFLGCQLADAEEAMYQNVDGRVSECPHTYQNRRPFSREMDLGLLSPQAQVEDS
Condition Description: FLT3(K663Q)
Readout Type: pKd
// pKd here means minus log10 of the molar concentration (mol/L)

## Task Can you share its pKd? I mean this compound: CCc1nc(C(N)=O)c(Nc2ccc(N3CCC4(CCN(C)CC4)CC3)c(C)c2)nc1NC1CCOCC1.O=C(O)C(F)(F)F
## Result 8.00
